Assay: folding stability dG unfold from trypsin proteolysis; higher = more stable
Below, each of the sequences is paired with its reported folding stability dG unfold value.
Quick note: give the figure in kcal/mol, leave out the unit.

// known answers, use as guide
1) SAGGSAGGMTITLRIKITNPDGEEKEIEVELELPEELKGKTLEELAAELAKALLPPGAKVEVEPSAGGSAGG [r6_821_TrROS_Hall] : 1.73
2) SAGGSAGGSAGEGLKVTVTVSGELDPEKGGLSLRVEIRVEPVLIPPPVLPPAADNLSNLLSAGGSAGGSAGG [r17_454_TrMRF] : 1.94
3) SAGGSAGSKPVTINWKITHPDGTPTTIPFSFPTEEQALEEALKAAEALAKEAGYPDFKIEIDEIIPSAGGSA [r15_698_TrMRF] : 0.0851
4) SAMTPETERKLLEAPKTGDVEAVREAAEEIEKEYPGKGLVVTVTVSPLSDGTWEVEVTVELPPNLPELASAG [r14_690_JUSTAS] : 0.702
5) SAGGSAGGSENNIVIKMKMEMPNQEMKFRFPIPADKLKDALKEGKPIKFPNGMNVRITEIIPVSAGGSAGGS [r12_432_TrROS] : -0.864

Please look at this sequence and report its folding stability dG unfold: SAGGPVFLGFEEALEFIEKAFENGEDVVVVARLPDGGLVVLEASGPDLDLRVVAVIPLPPPEEDPEKYSAGG [r13_839_TrMRF]
1.5

Please look at this sequence and report its folding stability dG unfold: SAGGSAGGSAGGMTIKEIMKRFPGGGEIDITEIPGDRITIEMRFPNGNNRRRTIPPDEISAGGSAGGSAGGS [r10_612_TrROS]
-0.04

Please look at this sequence and report its folding stability dG unfold: SAGGSAGGSAGPFKIEMTFIFKKDNEYYIAKIEIEISPDGYPKMKIEIKKVDINELENYFSAGGSAGGSAGG [r11_690_TrMRF]
2.52

Please look at this sequence and report its folding stability dG unfold: SAGGPLSEEELEALRKALEAARAAGAETVTLTATLTVTRTVTLPDGSTRTETRTLTLTLTVTLPPEESAGGS [r8_203_TrROS_Hall]
3.74

Please look at this sequence and report its folding stability dG unfold: SAGGSAGGSAGTIRIKMKDGKPMEFPLKGLPKEDLDDPEFLDWIKDWARDSGMKIDDIEISAGGSAGGSAGG [r11_467_TrROS]
-0.62

Please look at this sequence and report its folding stability dG unfold: SAMVIPAEVRLPGTPEEVLEKAREFADTLAARFRELGFEVVAVELEEIEPGEAVVRLRIVVARPDEEFPSAG [r14_973_TrMRF]
2.75

Please look at this sequence and report its folding stability dG unfold: SAGEKPEKPPEVTITITSVKVERLPDGTVVVEVEAEIEVDGVTLTVRARFVYRDGKLFLEVEVRLEPLPSAG [r5_267_TrROS_Hall]
3.5

Please look at this sequence and report its folding stability dG unfold: EKYIVKIKITVRRKVETETLPDGSKKTRYETKTLEIEIEVSLEELKKLLEELNLPEDEITSVEIEVYPEEES [r1_351_TrROS_Hall]
3.3

---

Assay: folding stability dG unfold from chymotrypsin proteolysis; higher = more stable
endpoint: folding stability dG unfold
Value and unit, in that order.

1. SGMEEIKIEVLSTETDESGTTYTETKIVLPDGKVIEATMTTTTVPDAAGNPVAVETLTLKDKTYTRTIPLSA [r9_271_JUSTAS] : 0.448 kcal/mol

Please look at this sequence and report its folding stability dG unfold: SAGGSAGGSAGMTPEEEVEYEIEVPDPNSDNLKTKIKLKFPVGTPEEEIKKKAEELAKKLSAGGSAGGSAGG [r11_516_JUSTAS]
1.67 kcal/mol

Please look at this sequence and report its folding stability dG unfold: SAKKTIVVPVEKLKELLDALKEAGYEVKVEYNKENPVVTVTITVKDKNGKELKIELVVDKKTGLVTIKLSAG [r14_169_TrROS_Hall]
2.45 kcal/mol

Please look at this sequence and report its folding stability dG unfold: SADIKIDDIETQENPDGYEWYMITINFPDPKKFKEKLKKHGVNPEWDPNDPDQVEIWFPREDIQEILKLSAG [r14_777_TrROS]
0.884 kcal/mol

Please look at this sequence and report its folding stability dG unfold: SEKTVLSSSTSTSPTSITTTTTVKLPDGSLITTTTTYSSVTAAPTPAPGGTLVPTYSLPTTTTTTTLPPASA [r9_240_JUSTAS]
0.309 kcal/mol

Please look at this sequence and report its folding stability dG unfold: SAGGSAGGSAGMVIVDPERGYIYIPFPEDIEPEEFIEANKIPEFDIEVLEIGENIPVIKLSAGGSAGGSAGG [r17_323_TrMRF]
-0.0485 kcal/mol

Please look at this sequence and report its folding stability dG unfold: SAGGSAGGSAGGKTYKITVSSGDTYLTISIELPDGLVLTYKITPNSIEVEIKPLKDFNESAGGSAGGSAGGS [r10_1169_TrMRF]
5.3 kcal/mol
